Test system: HCV 1b_Huh-Luc/Neo-ET cell line persistently expressing a bicistronic genotype 1b replicon in Huh 7 cells
Assay: HCV replicon assay (luciferase readout, 72 h)
Format: cell-based, HCV genotype 1b
Conditions: Hepatitis C virus, Huh-7, 72 h, read-out: Inhibition of HCV genotype 1b
Experimental: Biological activity of the compounds of the invention was determined using an HCV replicon assay. The HCV 1b_Huh-Luc/Neo-ET cell line persistently expressing a bicistronic genotype 1b replicon in Huh 7 cells was obtained from ReBLikon GMBH. This cell line was used to test compound inhibition using luciferase enzyme activity readout as a measurement of compound inhibition of replicon levels. […] The EC50 value was determined using GraphPad Prism and the following equation: […]
pEC50: −log10 of the molar value.

compound | pEC50
COC(=O)N[C@H](C(=O)N1CCC[C@H]1c1ncc(-c2ccc(C#Cc3ccc(-c4cnc([C@@H]5CCCN5C(=O)[C@@H](NC(=O)OC)[C@@H](C)O)[nH]4)cc3)cc2)[nH]1)C(C)C [Compound 971] | > 9.00
C(#Cc1ccc2nc([C@@H]3CCCN3Cc3ccccc3)[nH]c2c1)c1ccc(-c2cnc([C@@H]3CCCN3Cc3ccccc3)[nH]2)cc1 [Compound 1052] | < 6.00
CC(C)(C)OC(=O)N[C@@H](C(=O)N1CCC[C@H]1c1ncc(-c2ccc(C#Cc3ccc4nc([C@@H]5CCCN5C(=O)[C@H](NC(=O)OC(C)(C)C)c5ccccc5)[nH]c4c3)cc2)[nH]1)c1ccccc1 [Compound 801] | > 9.00

* * *

EC50 values by entry
system: HCV 1b_Huh-Luc/Neo-ET cell line persistently expressing a bicistronic genotype 1b replicon in Huh 7 cells; assay: HCV replicon assay (luciferase readout, 72 h); format: cell-based, HCV genotype 1b; conditions: Hepatitis C virus, Huh-7, 72 h, read-out: Inhibition of HCV genotype 1b
reported.endpoint: EC50

compound | reported.endpoint | observed.result
COC(=O)N[C@H](C(=O)N1CCC[C@H]1c1ncc(-c2ccc(C#Cc3ccc4nc([C@@H]5CCCN5C(=O)[C@@H](NC(=O)OC)C5CCOCC5)[nH]c4c3)cc2F)[nH]1)C1CCOCC1 [Compound 1070] | EC50 | < 1 nM
COC(=O)N[C@H](C(=O)N1CCC[C@H]1c1ncc(C#Cc2ccc(-c3ccc(-c4cnc([C@@H]5CCCN5C(=O)[C@@H](NC(=O)OC)C(C)C)[nH]4)cc3)cc2)[nH]1)C(C)C [Compound 756] | EC50 | < 1 nM
COC(=O)N[C@H](Cc1ccccc1)C(=O)N1CCC[C@H]1c1ncc(-c2ccc(C#Cc3ccc(-c4cnc([C@@H]5CCCN5C(=O)[C@H](NC(=O)OC)c5ccccc5)[nH]4)cc3)cc2)[nH]1 [Compound 180] | EC50 | < 1 nM

* * *

system: HCV 1b_Huh-Luc/Neo-ET cell line persistently expressing a bicistronic genotype 1b replicon in Huh 7 cells; assay: HCV replicon assay (luciferase readout, 72 h); format: cell-based, HCV genotype 1b; conditions: Hepatitis C virus, Huh-7, 72 h, read-out: Inhibition of HCV genotype 1b
pEC50: −log10 of the molar value.

smiles.string | pEC50
COC(=O)N[C@@H](C(=O)N1CCC[C@H]1c1ncc(-c2ccc(C#Cc3ccc(-c4cnc([C@@H]5CCCN5C(=O)[C@H](NC(=O)N5CC[C@@H](O)C5)c5ccccc5)[nH]4)cc3)cc2)[nH]1)c1ccccc1 | > 9.00
COC(=O)N[C@H](C(=O)N1CCC[C@H]1c1ncc(-c2cc(C)c(C#Cc3ccc4nc([C@@H]5CCCN5C(=O)[C@@H](NC(=O)OC)C(C)C)[nH]c4c3)c(C)c2)[nH]1)C(C)C | > 9.00
COC(=O)N[C@H](C(=O)N1CCC[C@H]1c1ncc(-c2ccc(C#Cc3ccc(-c4cnc([C@H](C)NC(=O)[C@H](C(C)C)N(C)C)[nH]4)cc3)cc2)[nH]1)C(C)C | 6.00 to 8.00
COC(=O)N[C@H](C(=O)N1CCC[C@H]1c1ncc(-c2ccc(C#Cc3ccc4nc([C@@H]5CCCN5C(=O)[C@@H](NC(=O)OC)[C@H](C)O)[nH]c4c3)cc2)[nH]1)[C@H](C)O | > 9.00
O=C(N[C@@H](C(=O)N1CCC[C@H]1c1ncc(-c2ccc(C#Cc3ccc(-c4cnc([C@@H]5CCCN5C(=O)[C@@H](c5ccccc5)N5CCCCC5)[nH]4)cc3)cc2)[nH]1)c1ccccc1)N1CCOCC1 | > 9.00
COC(=O)N[C@H](C(=O)N1C[C@H](F)C[C@H]1c1ncc(-c2ccc(C#Cc3ccc4nc([C@@H]5CCCN5C(=O)[C@@H](NC(=O)OC)C(C)C)[nH]c4c3)cc2)[nH]1)C(C)C | > 9.00
COC(=O)N[C@@H](CCC(=O)O)C(=O)N1CCC[C@H]1c1ncc(-c2ccc(C#Cc3ccc4nc([C@@H]5CCCN5C(=O)[C@H](CCC(=O)O)NC(=O)OC)[nH]c4c3)cc2)[nH]1 | 6.00 to 8.00
CC(C)[C@H](NC(=O)OC(C)(C)C)C(=O)N1CCC[C@H]1c1ncc(-c2ccc(C#Cc3ccc(-c4cnc([C@@H]5CCCN5C(=O)[C@@H](NC(=O)OC(C)(C)C)C(C)C)[nH]4)cc3)cc2)[nH]1 | 6.00 to 8.00
O=C(N[C@@H](C(=O)N1CCC[C@H]1c1cc(-c2ccc(C#Cc3ccc(-c4cnc([C@@H]5CCCN5C(=O)[C@H](NC(=O)[C@@H]5CCCO5)c5ccccc5)[nH]4)cc3)cc2)n[nH]1)c1ccccc1)[C@@H]1CCCO1 | > 9.00

* * *

test system: HCV 1b_Huh-Luc/Neo-ET cell line persistently expressing a bicistronic genotype 1b replicon in Huh 7 cells; assay: HCV replicon assay (luciferase readout, 72 h); assay type: cell-based, HCV genotype 1b; settings: Hepatitis C virus, Huh-7, 72 h, read-out: Inhibition of HCV genotype 1b

smiles.string | EC50
COC(=O)N[C@@H](C)C(=O)N1CCC[C@H]1c1ncc(-c2ccc(C#Cc3ccc(-c4cnc([C@@H]5CCCN5C(=O)[C@H](NC(=O)OC)c5ccccc5)[nH]4)cc3)cc2)[nH]1 | < 1 nM
O=C(N[C@@H](C(=O)N1CCC[C@H]1C(=O)Nc1ccc(C#Cc2cnc([C@@H]3CCCN3C(=O)[C@H](NC(=O)C3CC3)c3ccccc3)[nH]2)cc1)c1ccccc1)C1CC1 | < 1 nM
O=C([C@H](O)c1ccccc1)N1CCC[C@H]1c1ncc(C#Cc2ccc(-c3cnc([C@@H]4CCCN4C(=O)[C@H](O)c4ccccc4)[nH]3)cc2)[nH]1 | < 1 nM
COC(=O)N[C@@H](C(=O)N1CCC[C@H]1c1ncc(-c2ccc(C#Cc3ccc(-c4cnc([C@@H]5CCCN5C(=O)[C@H](NC(=O)OC)C(C)C)[nH]4)cc3)cc2)[nH]1)C(C)C | > 1000 nM
COC(=O)N[C@H](C(=O)N[C@@H](C)c1ncc(-c2ccc(C#Cc3ccc(-c4cnc([C@H](C)NC(=O)[C@@H](NC(=O)OC)[C@@H](C)OC)[nH]4)cc3)cc2)[nH]1)[C@@H](C)OC | 1 to 9.9 nM
C[C@@H](NC(=O)C1CC1)C(=O)N1CCC[C@H]1c1ncc(-c2ccc(C#Cc3ccc(-c4cnc([C@@H]5CCCN5C(=O)[C@@H](C)NC(=O)C5CC5)[nH]4)cc3)cc2)[nH]1 | 1 to 9.9 nM
COC(=O)N[C@H](C(=O)N[C@@H](C)c1ncc(-c2ccc(C#Cc3ccc(-c4cnc([C@@H]5CCCN5C(=O)[C@@H](NC(=O)OC)[C@@H](C)O)[nH]4)cc3)cc2)[nH]1)[C@@H](C)O | < 1 nM
O=C(N[C@@H](C(=O)N1CCC[C@H]1C(=O)NCc1ccc(C#Cc2cnc([C@@H]3CCCN3C(=O)[C@H](NC(=O)C3CC3)c3ccccc3)[nH]2)cc1)c1ccccc1)C1CC1 | < 1 nM
COC(=O)N[C@H](C(=O)N1CCC[C@H]1c1ncc(-c2ccc(C#Cc3ccc(-c4cnc([C@@H]5CCCN5C(=O)[C@@H](NC(=O)OC)C(C)C)[nH]4)c(F)c3)cc2)[nH]1)C(C)C | < 1 nM
COC(=O)N[C@@H](C(=O)N1CCC[C@H]1c1ncc(-c2ccc(C#Cc3ccc(-c4cnc([C@@H]5CCCN5C(=O)C5CCN(C)CC5)[nH]4)cc3)cc2)[nH]1)c1ccccc1 | < 1 nM
COC(=O)N[C@@H](C(=O)N1CCC[C@H]1c1ncc(C#Cc2ccc(-c3ccc(-c4cnc([C@@H]5CCCN5C(=O)[C@H](NC(=O)C5CC5)c5ccccc5)[nH]4)cc3)cc2)[nH]1)c1ccccc1 | < 1 nM
COC(=O)N[C@@H](C(=O)N1CCC[C@H]1c1ncc(-c2ccc(C#Cc3cnc([C@@H]4CCCN4C(=O)[C@@H](c4ccccc4)N(C)C)[nH]3)cc2)[nH]1)c1ccccc1 | < 1 nM
COC(=O)N[C@H](C(=O)N1CCC[C@H]1c1nc2ccc(C#Cc3ccc(-c4cnc([C@@H]5CCCN5)[nH]4)cc3)cc2[nH]1)C(C)C | 10 to 999 nM
CC(C)[C@@H](NC(=O)OC(C)(C)C)C(=O)N1CCC[C@H]1c1ncc(C#Cc2ccc(-c3cnc([C@@H]4CCCN4C(=O)[C@H](NC(=O)OC(C)(C)C)C(C)C)[nH]3)cc2)[nH]1 | 10 to 999 nM
COC(=O)N[C@@H](C(=O)N(C)[C@@H](C)c1ncc(-c2ccc(C#Cc3ccc(-c4cnc([C@@H]5CCCN5C(=O)[C@H](NC(=O)OC)c5ccccc5)[nH]4)cc3)cc2)[nH]1)c1ccccc1 | < 1 nM
COC(=O)N[C@@H](C(=O)N1CCC[C@H]1c1ncc(-c2ccc(C#Cc3ccc(-c4cnc([C@@H]5CCCN5C(=O)[C@H](NC(=O)[C@H]5CCCO5)c5ccccc5)[nH]4)cc3)cc2)[nH]1)c1ccccc1 | < 1 nM
COC(=O)N[C@H](C(=O)N[C@@H](C)c1ncc(-c2ccc(C#Cc3ccc(-c4cnc([C@@H]5CCCN5C(=O)[C@@H](NC(=O)OC)C(C)C)[nH]4)cc3)cc2)[nH]1)C(C)C | < 1 nM
COC(=O)N[C@H](C(=O)N1CCC[C@H]1c1ncc(-c2ccc(C#Cc3ccc(-c4cnc([C@@H]5CCCN5C(=O)[C@@H](NC(=O)OC)[C@@H](C)OC)[nH]4)cc3)cc2)[nH]1)C(C)C | < 1 nM
COC(=O)N[C@H](C(=O)N1CCC[C@H]1c1nc2c([nH]1)-c1ccc(C#Cc3ccc4nc([C@@H]5CCCN5C(=O)[C@H](NC(=O)OC5CCOCC5)c5ccccc5)[nH]c4c3)cc1CC2)C(C)C | < 1 nM
